Origin of measurements: ChEMBL document CHEMBL2202954

Test system: HCT-116
Assay comment: Cytotoxicity against human HCT116 cells assessed as cellular growth at 10 uM by SRB assay
Type: functional
Measured attribute: Activity

- Cc1cc(C)c(NC(=O)c2sc3nc4c(cc3c2N)C(=O)CCC4)c(C)c1: 23.12%
- O=C(NCCc1ccccc1)c1[nH]c2ccccc2c1Cl: 87.15%
- O=C(Nc1nc2ccc(Cl)cc2s1)c1ccc(Cl)cc1Cl: 105.32%
- Clc1cccc(-c2nc(-c3cccs3)no2)c1: 97.8%
- Cc1c(OCC(=O)c2ccccc2)ccc2c1oc(=O)c1ccccc12: 107.52%
- O=C(NCCc1ccccc1)c1cc2cccc([N+](=O)[O-])c2[nH]1: 101.79%
- Nc1c(C(=O)NCc2ccccc2)sc2nc3c(cc12)C(=O)CCC3: 108.9%
- COc1ccc(Cl)cc1C(=O)Nc1nc2ccc(Cl)cc2s1: 53.23%
- O=C(Nc1ccc(S(=O)(=O)Nc2nccs2)cc1)c1cccs1: 108.46%
- Cc1ccc(S(=O)(=O)Oc2ccc(-c3cnc4ccccc4n3)cc2)cc1: 106.69%
- O=C(Nc1nc2ccccc2s1)c1ccc(F)cc1: 92.81%
- O=C(Nc1ccc2oc(=O)ccc2c1)c1ccc(-c2ccc(Br)cc2)o1: 103.94%
- Nc1c(C(=O)Nc2ccccc2)sc2nc3c(cc12)C(=O)CCC3: 23.57%
- O=S(=O)(Oc1ccc(-c2cnc3ccccc3n2)cc1)c1ccccc1: 94.15%
- O=C(NCc1ccc(Cl)cc1)c1[nH]c2ccccc2c1Cl: 103.25%
- COc1ccc(S(=O)(=O)n2ccc(-c3ccc4c(c3)CCC(C)(C)O4)n2)cc1: 68.33%
- O=C(Nc1nc2ccc(Cl)cc2s1)c1ccc(Cl)cc1: 98.42%
- O=S(=O)(Oc1ccc(-c2cnc3ccccc3n2)cc1)c1ccc2ccccc2c1: 94.69%
- Cc1ccc(NC(=O)c2sc3nc4c(cc3c2N)C(=O)CCC4)cc1Cl: 105.04%
